# test.name: Solubility of the mono-hydrochloride salt in water and buffer solutions
# Assay type: physicochemical
# particulars: water, thermodynamic from solid, Water; read-out: Mean solubility
measure: solubility (mg/mL)

* CCCC(CCC)C(=O)Nc1ccn([C@@H]2O[C@H](CO)[C@@H](OC(=O)[C@@H](N)C(C)C)C2(F)F)c(=O)n1.Cl [LR-06-B.HCl] | 394

---

# test.name: Solubility of the mono-hydrochloride salt in water and buffer solutions
# Type: physicochemical
# particulars: buffer solution pH 6.8, pH 6.8, aqueous buffer, thermodynamic from solid, Buffer pH 6.8; solid added until saturation; read-out: Solubility, Estimation 2a
measure: solubility at 15 min (mg/mL)

* CCCC(CCC)C(=O)Nc1ccn([C@@H]2O[C@H](CO)[C@@H](OC(=O)[C@@H](N)C(C)C)C2(F)F)c(=O)n1.Cl [LR-06-B.HCl] | 302

---

# test.name: Solubility of the mono-hydrochloride salt in water and buffer solutions
# Assay type: physicochemical
# particulars: buffer solution pH 6.8, pH 6.8, aqueous buffer, thermodynamic from solid, Buffer pH 6.8; solvent added until dissolution of 50 mg solid; read-out: Solubility, Estimation 1
measure: solubility (mg/mL)

• CCCC(CCC)C(=O)Nc1ccn([C@@H]2O[C@H](CO)[C@@H](OC(=O)[C@@H](N)C(C)C)C2(F)F)c(=O)n1.Cl [LR-06-B.HCl] = 241

---

# test.name: Solubility of the mono-hydrochloride salt in water and buffer solutions
# Type: physicochemical
# particulars: buffer solution pH 1.2, pH 1.2, simulated gastric fluid, thermodynamic from solid, Buffer pH 1.2; solvent added until dissolution of 50 mg solid; read-out: Solubility, Estimation 1
measure: solubility (mg/mL)

• CCCC(CCC)C(=O)Nc1ccn([C@@H]2O[C@H](CO)[C@@H](OC(=O)[C@@H](N)C(C)C)C2(F)F)c(=O)n1.Cl [LR-06-B.HCl] = 207

---

# test.name: Solubility of the mono-hydrochloride salt in water and buffer solutions
# Assay type: physicochemical
# particulars: buffer solution pH 4.5, pH 4.5, aqueous buffer, thermodynamic from solid, Buffer pH 4.5; solid added until saturation; read-out: Solubility, Estimation 2b
measure: solubility at 15 min (mg/mL)

• CCCC(CCC)C(=O)Nc1ccn([C@@H]2O[C@H](CO)[C@@H](OC(=O)[C@@H](N)C(C)C)C2(F)F)c(=O)n1.Cl [LR-06-B.HCl] = 233

---

# test.name: Solubility of the mono-hydrochloride salt in water and buffer solutions
# Format: physicochemical
# particulars: water, thermodynamic from solid, Water; solid added until saturation; read-out: Solubility, Estimation 2a
measure: solubility at 15 min (mg/mL)

• CCCC(CCC)C(=O)Nc1ccn([C@@H]2O[C@H](CO)[C@@H](OC(=O)[C@@H](N)C(C)C)C2(F)F)c(=O)n1.Cl [LR-06-B.HCl] = 463
